targetUnderTest: Androgen receptor (Homo sapiens)
Sequence (P10275 whole entry): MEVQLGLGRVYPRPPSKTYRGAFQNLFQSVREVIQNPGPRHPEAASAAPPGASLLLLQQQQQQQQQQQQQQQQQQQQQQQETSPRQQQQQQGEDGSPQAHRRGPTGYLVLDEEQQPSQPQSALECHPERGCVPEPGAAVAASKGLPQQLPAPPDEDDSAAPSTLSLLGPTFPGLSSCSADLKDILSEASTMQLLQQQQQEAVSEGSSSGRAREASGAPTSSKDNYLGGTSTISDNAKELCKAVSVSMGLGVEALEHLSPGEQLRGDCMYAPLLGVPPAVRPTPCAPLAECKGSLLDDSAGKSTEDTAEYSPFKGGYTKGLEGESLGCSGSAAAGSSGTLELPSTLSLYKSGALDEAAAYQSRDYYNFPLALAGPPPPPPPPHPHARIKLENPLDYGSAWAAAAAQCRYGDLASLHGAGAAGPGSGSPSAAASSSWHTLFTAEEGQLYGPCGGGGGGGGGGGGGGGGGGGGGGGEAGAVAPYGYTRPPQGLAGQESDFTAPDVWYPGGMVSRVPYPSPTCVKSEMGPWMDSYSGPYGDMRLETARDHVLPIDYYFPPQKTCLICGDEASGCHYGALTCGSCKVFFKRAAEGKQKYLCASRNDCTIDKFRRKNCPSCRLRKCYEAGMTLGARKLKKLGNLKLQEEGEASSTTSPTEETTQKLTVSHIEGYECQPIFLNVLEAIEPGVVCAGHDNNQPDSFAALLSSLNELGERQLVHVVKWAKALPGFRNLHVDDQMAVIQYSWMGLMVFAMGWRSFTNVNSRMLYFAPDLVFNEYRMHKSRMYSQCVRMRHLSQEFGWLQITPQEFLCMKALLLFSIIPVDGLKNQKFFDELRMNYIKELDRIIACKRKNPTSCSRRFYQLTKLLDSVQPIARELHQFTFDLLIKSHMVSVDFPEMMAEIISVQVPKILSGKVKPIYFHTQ
assayEndpoint: pIC50
// field semantics: pIC50 = negative decimal log of concentration (mol/L)

Look up pIC50 for this compound: `Cn1c(C#N)ccc1-c1ccc(C(=O)C(C)(C)C)cc1` 7.00

* * *

Hi there, I'd appreciate the recorded IC50 for every entry that follows.
targetUnderTest: Progesterone receptor (Homo sapiens, UniProt P06401)
Sequence (P06401 whole entry): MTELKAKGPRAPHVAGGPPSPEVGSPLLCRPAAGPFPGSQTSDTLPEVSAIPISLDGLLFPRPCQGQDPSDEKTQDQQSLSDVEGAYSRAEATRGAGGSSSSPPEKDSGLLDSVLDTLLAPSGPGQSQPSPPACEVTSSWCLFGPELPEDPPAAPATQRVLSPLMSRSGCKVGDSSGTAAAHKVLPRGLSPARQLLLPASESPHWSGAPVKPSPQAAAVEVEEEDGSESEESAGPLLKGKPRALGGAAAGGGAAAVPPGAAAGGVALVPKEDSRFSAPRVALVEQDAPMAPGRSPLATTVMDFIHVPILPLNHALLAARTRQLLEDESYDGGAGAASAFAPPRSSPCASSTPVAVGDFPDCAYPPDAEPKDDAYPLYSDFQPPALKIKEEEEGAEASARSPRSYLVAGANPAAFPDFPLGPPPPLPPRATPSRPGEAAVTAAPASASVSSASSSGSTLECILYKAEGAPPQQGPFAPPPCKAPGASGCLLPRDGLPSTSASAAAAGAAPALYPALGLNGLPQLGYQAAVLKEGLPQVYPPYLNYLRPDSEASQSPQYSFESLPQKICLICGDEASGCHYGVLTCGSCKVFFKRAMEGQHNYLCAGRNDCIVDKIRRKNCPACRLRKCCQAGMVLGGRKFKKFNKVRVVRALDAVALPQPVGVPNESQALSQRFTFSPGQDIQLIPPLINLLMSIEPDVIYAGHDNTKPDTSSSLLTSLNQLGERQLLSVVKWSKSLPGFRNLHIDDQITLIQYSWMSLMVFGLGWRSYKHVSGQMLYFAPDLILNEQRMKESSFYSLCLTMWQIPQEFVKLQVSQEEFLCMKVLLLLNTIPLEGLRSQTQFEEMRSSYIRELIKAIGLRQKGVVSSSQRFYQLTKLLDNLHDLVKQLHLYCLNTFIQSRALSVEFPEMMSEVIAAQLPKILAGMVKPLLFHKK
assaySummary: Antagonist activity at progesterone receptor in human T47D cells assessed as inhibition of progesterone-induced alkaline phosphatase activity
The figure you give is taken to be in nM; do not add the unit.

Look up IC50 for this molecule: Cn1c(C#N)ccc1-c1ccc(C(O)c2ccccc2)cc1 (stereo not drawn) 118

Look up IC50 for this molecule: CC(O)c1ccc(-c2ccc(C#N)n2C)cc1 (stereo not drawn) 36

Look up IC50 for this molecule: `CC(=O)c1ccc(-c2ccc(C#N)n2C)cc1` 800
